Attribution: the Immune Epitope Database (IEDB)

# Tested On: HLA-A*66:01
# Procedure Summary: IEDB peptide-MHC binding, purified MHC/competitive/fluorescence; filed as Kd, often an IC50 or EC50 that approximates it; bounds were set here for any values at or beyond the usual limits of such assays
# Condition: source organism: Vibrio cholerae
pKd: −log10 of the molar value.
Measured Quantity: pKd

Documented pKd of `TRAPAPFPL` : ≤ 5.30

###

Listing of entries alongside the reported Kd.
# Tested On: HLA-A*23:01
# Procedure Summary: IEDB peptide-MHC binding, purified MHC/competitive/radioactivity; filed as Kd, often an IC50 or EC50 that approximates it; bounds were set here for any values at or beyond the usual limits of such assays
# Condition: source organism: Mammarenavirus guanaritoense
Value expressed in µM; do not type the unit.

>  <Primary Sequence>
RYNLDPDTI

>  <Kd (µM)>
6.79

$$$$

Documented Kd of `MSPALFHAFF` : 0.148
